Recorded viability for the following compounds
Assay: H69AR cell proliferation blockers – human, duplicate replicates, primary screen (AID 580);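 note: 100% = mean luminescence of untreated wells and 0% = no signal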
Conditions: H69AR lung tumor cells viability, ATP luminescence, 72 h; at 10 µM; stronger effect = lower value

# compound, unitTag, viability
records = [
    ("Cc1cc(NS(=O)(=O)c2ccccc2)no1", "%", 90.7),
    ("CCSc1nc(O)c(CC)c(=O)n1C(C)CC (stereo unspecified)", "%", 108),
    ("Cn1c(=O)oc2cc(S(=O)(=O)N3CCCC(C(=O)NCC4COc5ccccc5O4)C3)ccc21 (stereo unspecified)", "%", 94),
    ("CC(=O)Nc1cccc(NC(=O)c2ccco2)c1", "%", 91.5),
    ("COc1cccc(-c2nnc(NC(=O)c3ccccc3Br)o2)c1", "%", 67),
    ("COc1ccc(S(=O)(=O)N2CCC(C(=O)Nc3c(F)cccc3F)CC2)cc1", "%", 97.6),
    ("Cc1ccccc1Cn1nc(C)c(NC(=O)c2noc3c2CCc2ccccc2-3)c1C", "%", 98.4),
    ("Cn1cc(Cl)c(C(=O)N(Cc2ccccc2)c2ccccn2)n1", "%", 92.2),
    ("CCCOC(=O)c1[nH]c2c(c1C)C(=O)CC(c1cc(OC)c(OC)c(OC)c1)C2 (stereo unspecified)", "%", 74.2),
    ("CC(=O)NCCc1ccc(S(=O)(=O)NCc2ccc3c(c2)OCO3)cc1", "%", 103),
    ("Cc1cc(C)n2nc(S(=O)(=O)N(C)c3ccccc3)nc2n1", "%", 94.5),
]
